ASSAY SUMMARY: Compound was evaluated for distribution coefficient (logD) measured at pH7.4
Type: physicochemical
CONDITION NOTES: octanol/water, pH 7.4
REPORTED PROPERTY: logD

Data request, read-out logD, for CN(CCF)c1ccc(-c2cn3cc(I)ccc3n2)cc1
4.41

Data request, read-out logD, for CN(C)c1ccc(-c2cn3cc([125I])ccc3n2)cc1
3.58

Data request, read-out logD, for CN(CCCF)c1ccc(-c2cn3cc(I)ccc3n2)cc1
4.6

Entry source: ChEMBL document CHEMBL1137092
